Reference source for all entries: a melting point compilation (Tetko et al.; mined from patent text by program, amines drawn as free bases though some values may be those of a salt)

ENDPOINT NAME: melting point

Item under review: N#CC(=CN1CCOCC1)Cc1ccc2c(c1)OCO2 . Reported melting point?
85 to 85.5 °C

Also COc1ccc([N+](=O)[O-])cc1C(=O)NCc1ccc(C(F)(F)F)cc1 , if possible.
108 to 109 °C

Also Cc1sc(-c2ccccc2)nc1COc1ccc(Cn2cc(CCC(=O)O)c(-c3ccccc3)c2)cc1 , if possible.
157 to 158 °C

----------
ENDPOINT NAME: melting point

1) COc1cccc2c(Nc3ccc(C)c(O)c3)c(C#N)cnc12 = 148 to 150 °C
2) Cn1nc(SC2c3cc(C#N)ccc3CC(C)(C)C2O)ccc1=O (stereo not given) = 149 to 151 °C
3) CCn1cc(C(=O)c2ccccc2)c(=O)c2cn(C)nc21 = 217 to 218 °C
4) CC(=O)NCC1CC(c2ccc(Br)cc2)=NO1 (stereo not given) = 198 to 199 °C
5) CC(C)(C)OCC1CN(c2ccc3cc(OCc4ccccc4)ccc3c2)C(=O)O1 (stereo not given) = 152 °C
6) CCOC(=O)c1ncn2c1CNC(=O)c1cc(F)ccc1-2 = 298 °C
7) Cn1nc(-c2ccc(Cl)c(Cl)c2)cc1C(=O)O = 252 to 256 °C
8) Cc1onc(NS(=O)(=O)c2ccccc2-c2ccc(-c3ncco3)cc2CN2CCC(C)(C)C2=O)c1C = 110 to 117 °C

Item under review: COC(=O)[C@H](COC(C)(C)C)NC(=O)[C@@H](NC(=O)[C@H](Cc1ccccc1)NC(=O)[C@@H](NC(=O)OCc1ccccc1)[C@@H](C)OC(C)(C)C)[C@@H](C)OC(C)(C)C . Reported melting point?
114 to 115 °C

Also O=C1CC(c2ccc(F)cc2)CC(=O)O1 , if possible.
99 to 104 °C

----------
This listing pairs molecules with measured melting point.

Below, 5 molecules whose answers are already recorded.
1. Nc1ccc2ccc(Nc3ccccc3)nc2n1 = 250 °C
2. CCCCc1nc(Cl)c(C=O)n1Cc1ccc([N+](=O)[O-])cc1 = 88 to 89 °C
3. NC(=O)c1nc(-c2cccnc2)nc2c1[nH]c(=O)n2[C@H]1CC[C@H](O)CC1 = 331 to 333 °C
4. CCOCc1nc2c(N)nc3ccccc3c2n1CC(C)(C)C(N)=O = 241 to 243 °C
5. O=c1[nH]c(=O)n2c3c(cccc13)Sc1ccc(C(F)(F)F)cc1-2 = 278 to 280 °C

Item under review: CSc1ncnn1C[C@]1(c2ccc(F)cc2F)O[C@@H]1c1ccccc1Cl (relative stereo) . Reported melting point?
116 to 117 °C

Also CCCNC(=O)C1(CCCCc2ccc(NC(=O)c3ccccc3)cc2)c2ccccc2-c2ccccc21 , if possible.
171 to 173 °C

Also Cc1ccnc2c1N=C(n1ccnc1)c1cccnc1N2C1CC1 , if possible.
198 to 200 °C

Also COc1ccc(-c2c3c(cc4ccc5c(c24)OCO5)C(=O)OC3)cc1OC , if possible.
221 to 223 °C

Also OCCCNc1cc(Nc2ccc(N3CCOCC3)cc2)ncn1 , if possible.
198 to 199 °C

----------
ENDPOINT NAME: melting point

Below, 2 compounds whose answers are already recorded.
1. Cc1noc(NS(=O)(=O)c2ccc(C(C)C)cc2)c1Br = 130 to 133 °C
2. Nc1c(-c2ccc(-c3cccnc3)cc2)nc2ccc(F)cc2c1C(=O)O = 260 to 268 °C

Item under review: N#Cc1cnn2c(-c3ccc(Cl)cc3)ccnc12 . Reported melting point?
244 to 245 °C

Also O=C(c1ccc(-c2ccccc2)cc1)N1Cc2ccc(C(=O)C(Cl)(Cl)Cl)n2Cc2ccccc21 , if possible.
197 to 198 °C

Also O=S1(=O)c2ccccc2Nc2c1c(O)c(O)c1ccccc21 , if possible.
330 °C

Also Cc1cnc(-c2ccc(C(F)(F)F)cc2)nc1Cl , if possible.
110 to 112 °C

Also O=C(O)c1ccc2c(Br)cccc2c1 , if possible.
248 to 250 °C

Also CC(=O)NC1CCC(=O)C(=CN(C)C)C1 (stereo unspecified) , if possible.
132 to 133 °C

Also C#CCOc1cc(F)ccc1[N+](=O)[O-] , if possible.
38 to 39 °C

Also Cc1c(C(=O)O)ncn1Cc1ccc2oc(-c3ccccc3-c3nnn[nH]3)c(Br)c2c1 , if possible.
248 °C

----------
ENDPOINT NAME: melting point

Below, 3 compounds whose answers are already recorded.
1) CCCCCCCSc1nn2c(=O)c(C)c(O)nc2s1 = 141 to 143 °C
2) C[C@@H](NC(=O)c1c[nH]c2ncc(-c3nn(CCO)c4cc(Cl)ccc34)nc12)C(=O)N1CC(C#N)C1 = 225 to 250 °C
3) COC(=O)C(C)(C)OCc1cc2cc(C(F)(F)F)ccc2n1S(=O)(=O)c1cc(OC)ccc1OC = 130 to 132 °C

Item under review: O=C(O)CP(=O)(O)C(CCCc1ccccc1)NC(=O)c1ccccc1 (stereo not drawn) . Reported melting point?
170 to 175 °C

Also CCOC(=O)C1=C(COCCCc2nc3ccccc3n2C)NC(C)=C(C(=O)NC(C)(C)C)C1c1ccccc1Cl (stereo not drawn) , if possible.
202 °C

Also CCOc1cc(N)c(Cl)cc1C(=O)NCC1CN(CC2CCN(C#N)CC2)CCO1 (stereo not drawn) , if possible.
197 °C

Also CC1(C)OC(c2ccc(S(C)(=O)=O)cc2)=C(c2cc(F)cc(F)c2)C1=O , if possible.
141 to 142 °C

Also COc1cc(C(=O)NC2CN(C)C2)ccc1Nc1ncc2c(n1)N(C1CCCC1)CC(F)(F)C(=O)N2C , if possible.
157 to 162 °C

----------
This listing pairs compounds with measured melting point.

Below, 6 compounds whose answers are already recorded.
1) O=[N+]([O-])c1cccc(-c2csc(NS(=O)(=O)c3ccc(Cl)c(Cl)c3)n2)c1 = 189 to 191 °C
2) COc1ccc(CC(=O)NC(NC(=NC#N)Nc2cccnc2OC)C(C)(Cl)Cl)cc1OC (stereo not given) = 188 to 190 °C
3) CCCc1nn(-c2ccc(C(F)(F)F)cn2)cc1CCCCOc1cc(CCC(=O)O)n(C)n1 = 122 to 123 °C
4) COc1ccc2c(c1)OCC(c1ccccc1)C2c1ccc(OCCN2CCCC2)cc1 (stereo not given) = 113 to 114 °C
5) COC(=O)c1sc2cc(CO)ccc2c1C = 121 to 123 °C
6) COc1ccc(CC(O)CO)c(OCc2ccccc2)c1 (stereo not given) = 82 to 86 °C

Item under review: Cc1c(C(=O)O)cnn1-c1ccc(F)c(F)c1 . Reported melting point?
148 °C

Also O=CNC1Cc2ccc([N+](=O)[O-])cc2C1 (stereo not given) , if possible.
91 to 92 °C

Also O=C(O)COc1cc(Cl)ccc1C(=O)NCc1ccc(Cl)c(Cl)c1 , if possible.
177 to 178 °C

Also CC1(C)C2CCC(C2)C1(C)F (stereo not given) , if possible.
93 to 94 °C

----------
This listing pairs molecules with measured melting point.

1) Cn1nc2c([N+](=O)[O-])cc3nc(O)c(O)nc3c2n1 = > 300 °C
2) O=C(Nc1ccc(-n2nc(C(F)(F)F)cc2C2CC2)cc1)c1c(Cl)cncc1Cl = 182 to 184 °C
3) COc1ccc(C(=O)CCCN2CCC(OC(=O)c3cc(Cl)c(N)c4c3OCC4)CC2)cc1OC = 156 °C
4) O=c1[nH]c2ccccc2n1CCN1CCC(Cc2c[nH]c3ccc(F)cc23)CC1 = 220 °C
5) COc1c(C)cc(N2CCN(c3ccc(-n4c(C)n[nH]c4=O)cc3)CC2)cc1C = 280 °C
6) CCCCc1cc(=O)c(C(=O)OCC)cn1Cc1ccc(-c2ccccc2C(=O)OC(C)(C)C)cc1 = 80 to 81 °C
7) CC(=O)c1ccc(-c2ccc(Cl)cc2)cc1 = 100 to 101 °C
8) Cc1nccn1-c1ccc(N2C[C@H](CNc3ccon3)OC2=O)cc1F = 106 to 107 °C

Consider the record given below.
Item under review: CO/C(=C\C=C\c1cc2ccccc2[nH]1)C(=O)NCc1ccccc1 . Reported melting point?
204 to 205 °C

----------
This listing pairs molecules with measured melting point.

1. Cc1ccc(N(Cc2ccc(N(C)C)cc2)C(=O)Nc2c(C(C)C)cccc2C(C)C)c(C)c1 = 100 °C

Item under review: COC(=Cc1ncn(C(c2ccccc2)(c2ccccc2)c2ccccc2)c1C)C(=O)c1cccc2ccccc12 . Reported melting point?
220 to 222 °C

Also COc1ccc2c(C(=O)c3ccc(OC4CCCCC4N4CCCCCC4)cc3)c(-c3ccc(OCCN4CCCC4)cc3)sc2c1 (configuration not stated) , if possible.
43.5 to 51.5 °C

Also COc1ccccc1N1CCN(CCCNC(=O)c2cccc3c(=O)c(C)c(-c4cccc([N+](=O)[O-])c4)oc23)CC1 , if possible.
135 to 137 °C

Also O=C(O)C(=O)c1ccc(OCCOc2ccc3ccccc3c2)c([N+](=O)[O-])c1 , if possible.
164 °C

Also CNC(=O)c1ccccc1Nc1nc(Nc2cc3c(cc2OC)CCN(CC(=O)N(C)C)CC3)ncc1Cl , if possible.
83 to 89 °C

Also O=C(NCc1cccnc1)c1ccc(OCc2ccc3ccccc3n2)cc1C1(c2ccccc2)CC2CCC1C2 (configuration not stated) , if possible.
179 to 181 °C
